Taken from the PolyMetriX glass transition set.

measured attribute: glass transition temperature (°C)

*c1ccc(Oc2ccc(N3C(=O)c4ccc(Oc5ccc(C(=O)c6ccc(Oc7ccc8c(c7)C(=O)N(*)C8=O)cc6)cc5)cc4C3=O)cc2)cc1 (repeat unit) | 210.00
*/C=C(\C#N)C(=O)Nc1cc(-c2ccc(O)c(NC(=O)/C(C#N)=C/c3ccc(/C=C/c4ccc(N(c5ccccc5)c5ccc(N(c6ccccc6)c6ccc(/C=C/c7ccc(*)s7)cc6)cc5)cc4)s3)c2)ccc1O (repeat unit) | 221.00
*/N=N/c1ccc(C(=O)NCCCCNC(=O)c2ccc(*)cc2)cc1 (repeat unit) | 215.00
*CCN(CCOC(=O)Nc1ccc(C)c(NC(=O)O*)c1)c1ccc(/N=N/c2ccc(-c3nc4ccc([N+](=O)[O-])cc4n3CC)cc2)cc1 (repeat unit) | 158.00
*C(=O)c1ccc(C(C)(CC)c2ccc(C(=O)N3CCN(*)CC3)cc2)cc1 (repeat unit) | 232.00
*c1ccc(C(c2ccc(C#N)cc2)c2ccc(N(*)c3ccc(C)cc3)cc2)cc1 (repeat unit) | 230.00

[1] *c1ccc(Oc2c(C)cc(C(c3cccnc3)c3cc(C)c(Oc4ccc(N5C(=O)CC(Nc6ccc(Cc7ccc(NC8CC(=O)N(*)C8=O)cc7)cc6)C5=O)cc4)c(C)c3)cc2C)cc1 (repeat unit)
[2] *C1C2CC(C(=O)OCCc3ccc(N(c4ccccc4)c4cccc5ccccc45)cc3)C(C2)C1* (repeat unit)
[3] *CC(*)c1ccccc1C(=O)OCCCCC (repeat unit)
Task: Thanks in advance: please rank these 3 entries by glass transition temperature, highest to lowest. Return value: ordered labels per request.
Result: 2, 1, 3

[A] *Oc1ccc(C2(c3ccc(OC(=O)c4ccc(Oc5ccc(C6(c7ccc(Oc8ccc(C(*)=O)cc8)cc7)CCC(C(C)(C)C)CC6)cc5)cc4)cc3)CC3CC2C2CCCC32)cc1 (repeat unit)
[B] *Oc1c(-c2ccccc2)cc(Cc2cc(-c3ccccc3)c(OC(=O)CCCCC(*)=O)c(-c3ccccc3)c2)cc1-c1ccccc1 (repeat unit)
Task: Compare reported glass transition temperature values for A and B . Which is lower? When you have decided, please share the label of that item.
Result: B
(B: 115.00 °C, A: 181.00 °C)

----------
measured attribute: glass transition temperature (°C)

*c1ccc(C(c2ccc(N3C(=O)c4ccc(Oc5ccc6c(c5)C(=O)N(*)C6=O)cc4C3=O)cc2)(C(F)(F)F)C(F)(F)F)cc1 (repeat unit) | 305.00
*CC(*)(C)C(=O)OCCc1ccccc1 (repeat unit) [Poly(2-phenylethyl methacrylate)] | 37.42
*CCCCCCCCO* (repeat unit) [Polyoxyoctamethylene ] | -70

[A] *C(=O)Nc1ccc(Cc2ccc(NC(=O)c3ccc4c(c3)C(=O)N(c3ccc(-c5sc(-c6ccc(N7C(=O)c8ccc(*)cc8C7=O)cc6)c(-c6ccccc6)c5-c5ccccc5)cc3)C4=O)cc2)cc1 (repeat unit)
[B] *Oc1ccc(C(C)(C)c2cccc(C(C)(C)c3ccc(Oc4ccc(C(=O)Nc5ccc(Cc6ccc(NC(=O)c7ccc(*)cc7)cc6)cc5)cc4)cc3)c2)cc1 (repeat unit)
Task: // max by glass transition temperature over [ A , B ] When you have decided, please share the label of that item.
Result: A
(A: 253.00 °C, B: 149.00 °C)

----------
measured attribute: glass transition temperature (°C)

As a guide, the following entries are already answered.
*Oc1ccc(CC(NC(=O)CCc2ccc(OC(=O)CCCCC(*)=O)cc2)C(=O)OCC)cc1 (repeat unit) | 61.00
*c1ccc(Oc2cccc(Oc3ccc(N4C(=O)c5ccc(Oc6ccc(C(C)(C)c7ccc(Oc8ccc9c(c8)C(=O)N(*)C9=O)cc7)cc6)cc5C4=O)cc3)c2C#N)cc1 (repeat unit) | 213.00
*Oc1cccc(NC(=O)CCCCCCC(=O)Nc2ccc(*)cc2)c1 (repeat unit) | 140.00
*CC(*)(C)C(=O)OCCCCOc1ccc(OC(=O)c2ccc(OCCCCCC)cc2)cc1 (repeat unit) | 34.00
*O[Si](*)(C)c1ccc(C)cc1 (repeat unit) | -17.00

[A] *c1ccc(Oc2ccccc2Oc2ccc(N3C(=O)c4ccc(-c5ccc6c(c5)C(=O)N(*)C6=O)cc4C3=O)cc2C(F)(F)F)c(C(F)(F)F)c1 (repeat unit)
[B] *CC(OC(=O)Oc1ccc(C(=O)OC)cc1)C(COC(=O)O*)OC(=O)Oc1ccc(C(=O)OC)cc1 (repeat unit)
[C] *Oc1ccc(CC(NC(=O)CCc2ccc(OC(=O)CCC(*)=O)cc2)C(=O)OCCOCCOCC)cc1 (repeat unit)
[D] *ON(C(F)(F)F)C(F)(C(*)(F)F)C(F)(F)F (repeat unit)
Task: Thanks in advance: please rank these 4 entries by glass transition temperature, highest to lowest. Return value: ordered labels per request.
Result: A, B, C, D
(A: 249.00 °C, B: 90.90 °C, C: 34.00 °C, D: -9.00 °C)

[I] *c1ccc(-c2nc3ccccc3o2)c(*)c1 (repeat unit)
[II] *Oc1ccc(CC(NC(=O)CCc2ccc(OC(=O)CCC(*)=O)cc2)C(=O)OCC(C)C)cc1 (repeat unit)
Task: Compare reported glass transition temperature values for I and II . Which is lower? When you have decided, please share the label of that item.
Result: II
(II: 75.00 °C, I: 229.00 °C)

----------
Listing: glass transition temperature of selected compounds
// units = °C; emit number, no label

As a guide, the following entries are already answered.
*OC1CCC(OC(=O)OCCCCCCOC(*)=O)CC1 (repeat unit) | 10.00
*CC(*)c1ccc(C#N)cc1 (repeat unit) | 180.00
*c1cccc(P(C)(=O)c2cccc(N3C(=O)c4ccc(NC(=O)OCCOc5c(Br)cc(C(C)(C)c6cc(Br)c(OCCOC(=O)Nc7ccc8c(c7)C(=O)N(*)C8=O)c(Br)c6)cc5Br)cc4C3=O)c2)c1 (repeat unit) | 191.00

Now look at this one.
Task: Requested field: glass transition temperature. Item: *CCC1C(=O)N(C)C(=O)C1* (repeat unit)
Result: 141.20

----------
Listing: glass transition temperature of selected compounds
// units = °C; emit number, no label

*CCCCCCOc1ccc(C(=O)N(C(=O)c2ccc(O*)cc2)c2cccc3ccccc23)cc1 (repeat unit) | 56.00

Task: Requested field: glass transition temperature. Item: *O[Si](C)(C)CC[Si](*)(C)O[Si](C)(C)C (repeat unit)
Result: -89.00

Task: Requested field: glass transition temperature. Item: *CC(*)c1cc(Br)ccc1OCCC (repeat unit)
Result: 54.00

Task: Requested field: glass transition temperature. Item: *CC(COC(C)(C)C)O* (repeat unit)
Result: -24.00

Task: Requested field: glass transition temperature. Item: *CCc1ccc(*)c(CCCC)c1 (repeat unit)
Result: 20.00

----------
measured attribute: glass transition temperature (°C)
// units = °C; emit number, no label

*CCN(*)CC[Si](C)(C)C (repeat unit) | -64.80
*CC(*)C(=O)Nc1cccc(Cl)c1 (repeat unit) | 70.00

Now look at this one.
Task: Requested field: glass transition temperature. Item: *CC/C=[C](/*)[Sn]([CH2]CCC)([CH2]CCC)[CH2]CCC (repeat unit)
Result: -80.00

----------
measured attribute: glass transition temperature (°C)

As a guide, the following entries are already answered.
*CC(*)c1ccc(B(O[Si](C)(C)C)O[Si](C)(C)C)cc1 (repeat unit) | 84.00
*Cc1c(C)c(C)c(CNC(=O)CCCC(=O)N*)c(C)c1C (repeat unit) | 192.00
*CC(*)(C)C(=O)Oc1c(C)cccc1C (repeat unit) | 167.00

[P] *CC(*)c1ccc(CCC(F)(F)C(F)(F)C(F)(F)C(F)(F)F)cc1 (repeat unit)
[Q] *Nc1ccc(C(c2ccc(NC(=O)c3ccc(-c4ccc(C(*)=O)c(C)c4)cc3C)cc2)(C(F)(F)F)C(F)(F)F)cc1 (repeat unit)
[R] *CC(*)C(=O)Oc1ccc(/N=N/c2ccc(OC)cc2)cc1 (repeat unit)
Task: Thanks in advance: please rank these 3 entries by glass transition temperature, highest to lowest. Return value: ordered labels per request.
Result: Q, R, P
(Q: 289.00 °C, R: 140.00 °C, P: 23.00 °C)

----------
measured attribute: glass transition temperature (°C)

As a guide, the following entries are already answered.
*CC(*)(C)C(=O)OC1CC2CC1C1C3CCC(C3)C21 (repeat unit) | 199.00
*c1cccc(NC(=O)CCCCC(=O)Nc2cccc(S(*)(=O)=O)c2)c1 (repeat unit) | 140.00
*C(=O)Nc1cccc(NC(=O)c2ccc3c(c2)C(=O)N(c2ccc(-c4sc(-c5ccc(N6C(=O)c7ccc(*)cc7C6=O)cc5)c(-c5ccccc5)c4-c4ccccc4)cc2)C3=O)c1 (repeat unit) | 334.00
*CCCCCCCCCCN/C(C)=N/* (repeat unit) | 80.00

[1] *Oc1ccc(-c2ccc(Oc3ccc(C(=O)c4ccc(C(=O)c5ccc(*)c(C(F)(F)F)c5)cc4)cc3C(F)(F)F)cc2)cc1 (repeat unit)
[2] *O[Si](*)(C)CCCOc1ccc(/N=N/c2ccc(S(=O)(=O)O)cc2)cc1 (repeat unit)
Task: Compare reported glass transition temperature values for 1 and 2 . Which is lower? When you have decided, please share the label of that item.
Result: 2
(2: 9.20 °C, 1: 187.00 °C)

[A] *c1ccc(-c2nnc(*)o2)c(OCCCCC)c1 (repeat unit)
[B] *C(=O)OCCCCCCCOC(=O)c1ccc(NC(=O)c2ccc(N3C(=O)c4ccc(*)cc4C3=O)cc2)cc1 (repeat unit)
Task: // max by glass transition temperature over [ A , B ] When you have decided, please share the label of that item.
Result: A
